Tested on: acylamino acid racemase
Experiment: Influences of metal ions on enzyme activities
Format: biochemical, Streptomyces sp. Y-53
Settings: no additives taken as 100; final concentration 1 mM, cobalt chloride excluded
# if measured Relative enzyme activity, Additive Concentration 1 mM < 100: True  # else: False

• O.O.O.O.O.O.[Cl-].[Cl-].[Sr+2] = True
• O.O.O.O.O.O.O.O.O.O.O.O.O.O.O.O.O=S(=O)([O-])[O-].O=S(=O)([O-])[O-].O=S(=O)([O-])[O-].[Al+3].[Al+3] [Al2 (SO4)3 .16H2 O] = True
• O.O.[Na+].[Na+].[O]=[Mo](=[O])([O-])[O-] = True
• O.O.[Ba+2].[Cl-].[Cl-] = True
• [Ca+2].[Cl-].[Cl-] = True
• [Cl-].[K+] = False
• O.O.O.O.O.O=S(=O)([O-])[O-].[Cu+2] = True
• O.O.O.O.O.O.O=S(=O)([O-])[O-].[Ni+2] = False

====

Tested on: acylamino acid racemase
Test: Substrate specificity of acylamino acid racemase (enzyme activity determination coupled with aminoacylase)
Assay type: biochemical, Streptomyces sp. Y-53
Conditions: amount of produced methionine taken as 100; L-aminoacylase coupled; free amino acids checked by amino acid oxidase and HPLC
PARAMETER: Relative Activity (D-form substrate)

• CC[C@H](C)[C@@H](NC(C)=O)C(=O)O [N-acetyl-D-allo-isoleucine] = 33
• N[C@H](Cc1c[nH]c2ccccc12)C(=O)O [D-tryptophan] = 0
• CSCC[C@@H](N)C(=O)O [D-methionine] = 0
• C[C@@H](NC(=O)c1ccccc1)C(=O)O [N-benzoyl-D-alanine] = 14
• CC(=O)N[C@H](Cc1ccccc1)C(=O)O [N-acetyl-D-phenylalanine] = 64
• CSCC[C@@H](NC(C)=O)C(=O)O [N-acetyl-D-methionine] = 100
• CC(=O)N[C@H](Cc1c[nH]c2ccccc12)C(=O)O [N-acetyl-D-tryptophan] = 10
• CC(=O)N[C@@H](C(=O)O)C(C)C [N-acetyl-D-valine] = 35
• CC(=O)N[C@H](CC(C)C)C(=O)O [N-acetyl-D-leucine] = 37
• C[C@@H](N)C(=O)O [D-alanine] = 0

====

Test system: acylamino acid racemase
Assay: Influences of metal ions on enzyme activities
Assay type: biochemical, Streptomyces sp. Y-53
Settings: no additives taken as 100; final concentration 1 mM, cobalt chloride excluded
PARAMETER: Relative enzyme activity, Additive Concentration 1 mM

* O.O.O.O.O.O.O.O=S(=O)([O-])[O-].[Zn+2] | 810
* [Cl][Pb][Cl] | 78
* O=S(=O)([O-])[O-].[Sn+2] | 92
* O.O.O.O.O.O.O.O=S(=O)([O-])[O-].[Mn+2] | 780
* O.O.O.O.O.O.O.O=S(=O)([O-])[O-].[Mg+2] | 890
* O=C(O)CN(CCN(CC(=O)O)CC(=O)O)CC(=O)O [EDTA, reference compound] | 68
* O.O.O.O.O.O.[Cl][Cr]([Cl])[Cl] | 96
* [Cl-].[Li+] | 100

Ref: patent US4981799A
